# Lookup of reported bioavailability keyed by entry
# ASSAY_DETAILS: Oral bioavailability in Beagle dog at 10 mg/kg
# Assay type: ADME, organism-based, Canis lupus familiaris
# TEST_PARAMETERS: in vivo
Answer with a number only, understood to be in %.

COMPOUND_STRING	EXPERIMENTAL_ENDPOINT	MEASUREMENT
O=C(O)c1c(O)c(Cc2ccc(Cl)cc2)nc2c3c(ccc12)CCCC3	bioavailability	58

Consider the compound shown here: O=C(O)c1c(O)c(C2(c3ccc(Cl)cc3)CC2)nc2c(C(F)(F)F)cccc12 What is its recorded bioavailability?
100

---

# ASSAY_DETAILS: Permeability from apical to basolateral side in human Caco-2 cells
# Format: ADME, cell-based
EXPERIMENTAL_ENDPOINT: Papp A→B (×10⁻⁶ cm/s)
Answer with a number only, understood to be in ×10⁻⁶ cm/s.

Consider the compound shown here: O=C(O)c1c(O)c(C2(c3ccc(Cl)cc3)CC2)nc2c(C(F)(F)F)cccc12 What is its recorded Papp A→B?
5.1

---

# TEST_TARGET: CYP2C9 (Homo sapiens, UniProt P11712)
# Sequence (P11712 whole entry): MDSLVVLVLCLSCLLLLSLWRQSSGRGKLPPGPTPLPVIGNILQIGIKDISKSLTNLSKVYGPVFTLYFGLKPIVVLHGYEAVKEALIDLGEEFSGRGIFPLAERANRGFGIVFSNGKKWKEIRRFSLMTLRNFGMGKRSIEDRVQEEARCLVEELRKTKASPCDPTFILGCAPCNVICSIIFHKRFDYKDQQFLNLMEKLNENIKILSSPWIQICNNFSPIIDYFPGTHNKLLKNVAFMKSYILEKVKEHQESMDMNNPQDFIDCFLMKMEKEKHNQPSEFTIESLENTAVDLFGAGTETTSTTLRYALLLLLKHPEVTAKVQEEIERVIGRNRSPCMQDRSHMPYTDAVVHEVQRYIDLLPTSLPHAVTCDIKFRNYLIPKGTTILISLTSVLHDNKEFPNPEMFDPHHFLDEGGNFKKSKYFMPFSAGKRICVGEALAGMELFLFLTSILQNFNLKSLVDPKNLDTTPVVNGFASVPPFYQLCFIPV
# ASSAY_DETAILS: Inhibition of CYP2C9 at 3 uM
# Type: ADME
EXPERIMENTAL_ENDPOINT: inhibition at 3 µM
Respond with the figure and its unit, in that order.

COMPOUND_STRING	EXPERIMENTAL_ENDPOINT	MEASUREMENT
CCc1cc(C(F)(F)F)c2nc(C3(c4ccc(Cl)cc4)CC3)c(O)c(C(=O)O)c2c1	inhibition at 3 µM	81%
Cc1ccc(C2(c3nc4c(C)c(C)ccc4c(C(=O)O)c3O)CC2)cc1	inhibition at 3 µM	47%
CCc1cc(C(F)(F)F)c2nc(C3(c4ccccc4)CC3)c(O)c(C(=O)O)c2c1	inhibition at 3 µM	86%

Continue with the next molecule.
Consider the molecule shown here: Cc1cc(C)c2nc(C3(c4ccc(F)cc4)CC3)c(O)c(C(=O)O)c2c1 What is its recorded inhibition at 3 µM?
55%

---

# ASSAY_DETAILS: Clearance in Beagle dog at 2 mg/kg, iv and 10 mg/kg, po
# Assay type: ADME, organism-based, Canis lupus familiaris
# TEST_PARAMETERS: in vivo
# Lookup of reported clearance keyed by entry
Answer with a number only, understood to be in mL/min/kg.

MOLECULE	clearance (mL/min/kg)
O=C(O)c1c(O)c(C2(c3ccc(Cl)cc3)CC2)nc2c(C(F)(F)F)cccc12	0.9

Continue with the next molecule.
Consider the molecule shown here: O=C(O)c1c(O)c(Cc2ccc(Cl)cc2)nc2c3c(ccc12)CCCC3 [PSI-697] What is its recorded clearance?
0.9

---

# ASSAY_DETAILS: Solubility of the compound in fed simulated intestinal bile salts-lecithin mixture fluid at pH 5.5
# Format: physicochemical
EXPERIMENTAL_ENDPOINT: solubility (µg/mL)
Answer with a number only, understood to be in µg/mL.

Consider the compound shown here: O=C(O)c1c(O)c(C2(c3ccc(Cl)cc3)CC2)nc2c(C(F)(F)F)cccc12 What is its recorded solubility?
835

---

# ASSAY_DETAILS: Clearance in C57B6 mouse at 2 mg/kg, iv and 10 mg/kg, po
# Format: ADME, organism-based
# TEST_PARAMETERS: in vivo
# Lookup of reported clearance keyed by entry
Answer with a number only, understood to be in mL/min/kg.

COMPOUND_STRING	VALUE_UNITS	clearance
O=C(O)c1c(O)c(Cc2ccc(Cl)cc2)nc2c3c(ccc12)CCCC3	mL/min/kg	11.6

Consider the compound shown here: O=C(O)c1c(O)c(C2(c3ccc(Cl)cc3)CC2)nc2c(C(F)(F)F)cccc12 What is its recorded clearance?
7
